- STUDY_TARGET: β-Receptor (Rattus norvegicus, UniProt P18090)
- Construct: from tissue; host or cells: rat heart
- Sequence (P18090 whole entry): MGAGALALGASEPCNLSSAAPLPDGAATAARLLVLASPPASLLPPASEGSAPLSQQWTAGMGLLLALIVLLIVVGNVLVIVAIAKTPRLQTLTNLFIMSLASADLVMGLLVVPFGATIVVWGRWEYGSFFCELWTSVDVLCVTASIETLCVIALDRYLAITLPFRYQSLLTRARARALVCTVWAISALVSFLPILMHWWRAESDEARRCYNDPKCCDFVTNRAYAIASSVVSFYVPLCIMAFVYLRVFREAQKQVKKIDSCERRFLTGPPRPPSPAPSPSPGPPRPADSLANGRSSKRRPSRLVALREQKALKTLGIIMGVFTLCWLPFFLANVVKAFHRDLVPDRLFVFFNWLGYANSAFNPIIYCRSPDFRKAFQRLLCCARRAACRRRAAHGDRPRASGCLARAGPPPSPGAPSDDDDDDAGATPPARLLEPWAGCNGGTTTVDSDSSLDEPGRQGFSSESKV
- EXPERIMENT: β-Receptor binding in animal heart tissue
READOUT_NAME: IC50

>>> df
                                   compound  test_value
0  COC(=O)C1=C(C)NC(C)=C(C(=O)OC)C1c1ccccc1[N+](=O)[O-] [Nifedipine, reference compound]      > 1 µM

----------
The compounds listed here are annotated with their Kb.
- STUDY_TARGET: rat dorsal aorta (Rattus norvegicus, UniProt P22002)
- Construct: from tissue; host or cells: rat dorsal aorta (smooth muscle)
- Sequence (P22002 whole entry): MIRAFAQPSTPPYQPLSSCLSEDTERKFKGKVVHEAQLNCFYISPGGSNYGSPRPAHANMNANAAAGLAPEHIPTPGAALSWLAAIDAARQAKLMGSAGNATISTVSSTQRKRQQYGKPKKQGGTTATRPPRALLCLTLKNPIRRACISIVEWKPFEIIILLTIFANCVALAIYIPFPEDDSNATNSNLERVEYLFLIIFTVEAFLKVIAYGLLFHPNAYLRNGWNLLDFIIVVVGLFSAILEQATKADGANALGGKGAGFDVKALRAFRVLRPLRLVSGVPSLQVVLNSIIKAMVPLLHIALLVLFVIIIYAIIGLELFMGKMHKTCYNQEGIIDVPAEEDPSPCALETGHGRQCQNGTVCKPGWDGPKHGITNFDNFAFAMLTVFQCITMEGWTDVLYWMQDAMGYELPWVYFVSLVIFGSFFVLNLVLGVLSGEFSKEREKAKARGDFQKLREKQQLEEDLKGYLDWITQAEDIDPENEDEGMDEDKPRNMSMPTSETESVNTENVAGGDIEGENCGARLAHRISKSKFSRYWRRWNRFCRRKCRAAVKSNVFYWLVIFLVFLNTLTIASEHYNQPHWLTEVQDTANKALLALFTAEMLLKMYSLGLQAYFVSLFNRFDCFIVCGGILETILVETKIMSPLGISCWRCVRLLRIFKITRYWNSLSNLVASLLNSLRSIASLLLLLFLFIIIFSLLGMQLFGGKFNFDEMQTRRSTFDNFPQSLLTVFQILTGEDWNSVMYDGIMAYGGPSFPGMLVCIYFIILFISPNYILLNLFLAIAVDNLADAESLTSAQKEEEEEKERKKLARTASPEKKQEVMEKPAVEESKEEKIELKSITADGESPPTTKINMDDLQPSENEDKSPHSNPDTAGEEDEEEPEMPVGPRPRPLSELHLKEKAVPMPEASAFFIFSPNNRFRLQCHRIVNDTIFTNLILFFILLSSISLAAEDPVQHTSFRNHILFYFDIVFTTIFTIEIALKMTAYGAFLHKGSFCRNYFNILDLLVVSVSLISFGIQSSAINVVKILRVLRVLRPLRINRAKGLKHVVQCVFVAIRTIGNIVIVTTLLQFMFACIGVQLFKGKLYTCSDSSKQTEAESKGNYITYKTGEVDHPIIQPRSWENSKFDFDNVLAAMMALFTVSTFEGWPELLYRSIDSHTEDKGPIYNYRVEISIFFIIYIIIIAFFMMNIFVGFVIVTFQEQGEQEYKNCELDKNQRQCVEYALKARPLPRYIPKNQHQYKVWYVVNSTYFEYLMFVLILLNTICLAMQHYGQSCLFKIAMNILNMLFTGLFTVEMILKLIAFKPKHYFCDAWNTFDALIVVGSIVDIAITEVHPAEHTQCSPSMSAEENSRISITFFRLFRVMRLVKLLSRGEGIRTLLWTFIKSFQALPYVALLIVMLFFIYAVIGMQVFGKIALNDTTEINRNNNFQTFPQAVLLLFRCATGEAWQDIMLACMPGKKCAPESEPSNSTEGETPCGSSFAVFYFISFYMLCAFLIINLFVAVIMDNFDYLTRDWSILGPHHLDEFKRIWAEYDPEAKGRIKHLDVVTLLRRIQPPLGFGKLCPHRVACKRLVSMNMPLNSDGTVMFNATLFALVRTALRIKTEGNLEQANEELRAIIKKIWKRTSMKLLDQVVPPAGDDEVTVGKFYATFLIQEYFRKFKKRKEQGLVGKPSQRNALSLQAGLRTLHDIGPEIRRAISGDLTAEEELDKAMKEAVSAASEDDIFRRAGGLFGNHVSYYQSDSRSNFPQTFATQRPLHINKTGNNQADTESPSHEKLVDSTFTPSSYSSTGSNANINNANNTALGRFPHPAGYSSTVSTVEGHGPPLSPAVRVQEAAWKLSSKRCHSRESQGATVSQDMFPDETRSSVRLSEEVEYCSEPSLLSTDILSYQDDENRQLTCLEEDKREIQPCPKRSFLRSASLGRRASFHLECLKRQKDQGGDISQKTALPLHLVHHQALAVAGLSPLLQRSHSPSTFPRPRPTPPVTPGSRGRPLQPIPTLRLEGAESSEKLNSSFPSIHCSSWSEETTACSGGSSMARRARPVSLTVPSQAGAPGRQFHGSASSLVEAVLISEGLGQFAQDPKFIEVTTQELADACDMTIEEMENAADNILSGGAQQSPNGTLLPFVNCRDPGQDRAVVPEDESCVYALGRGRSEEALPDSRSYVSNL
- Sequence (P54290 25-944 partner limits assumed): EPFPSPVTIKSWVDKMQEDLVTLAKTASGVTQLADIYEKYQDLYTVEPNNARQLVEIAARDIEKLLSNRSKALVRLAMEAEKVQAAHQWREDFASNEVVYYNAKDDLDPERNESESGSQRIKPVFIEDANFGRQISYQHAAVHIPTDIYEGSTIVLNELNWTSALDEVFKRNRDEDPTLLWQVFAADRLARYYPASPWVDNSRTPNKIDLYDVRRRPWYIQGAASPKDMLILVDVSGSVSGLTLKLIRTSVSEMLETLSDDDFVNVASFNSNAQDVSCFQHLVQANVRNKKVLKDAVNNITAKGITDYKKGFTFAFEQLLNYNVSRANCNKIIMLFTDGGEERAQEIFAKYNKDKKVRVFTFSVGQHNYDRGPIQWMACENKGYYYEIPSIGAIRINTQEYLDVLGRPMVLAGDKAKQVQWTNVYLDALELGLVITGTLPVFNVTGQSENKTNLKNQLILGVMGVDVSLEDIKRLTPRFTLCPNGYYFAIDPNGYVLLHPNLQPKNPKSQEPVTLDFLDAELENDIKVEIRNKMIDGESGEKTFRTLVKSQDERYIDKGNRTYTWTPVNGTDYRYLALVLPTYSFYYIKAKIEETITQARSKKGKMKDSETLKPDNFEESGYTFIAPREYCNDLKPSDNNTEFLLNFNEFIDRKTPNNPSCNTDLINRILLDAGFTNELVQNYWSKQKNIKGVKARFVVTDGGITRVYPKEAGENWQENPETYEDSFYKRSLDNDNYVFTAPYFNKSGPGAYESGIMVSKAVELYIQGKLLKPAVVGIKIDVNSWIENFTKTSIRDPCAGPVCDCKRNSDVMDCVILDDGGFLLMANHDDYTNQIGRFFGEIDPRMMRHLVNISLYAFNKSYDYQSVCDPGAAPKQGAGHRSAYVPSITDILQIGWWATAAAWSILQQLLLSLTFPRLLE
- Sequence (P54290 945-1091 partner limits assumed): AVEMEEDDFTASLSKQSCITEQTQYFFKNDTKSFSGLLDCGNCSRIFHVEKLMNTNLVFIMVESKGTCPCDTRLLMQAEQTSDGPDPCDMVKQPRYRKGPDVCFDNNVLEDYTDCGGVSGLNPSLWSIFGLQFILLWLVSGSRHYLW
- EXPERIMENT: Calcium blockade in rat dorsal aorta (calcium activity in smooth muscle)
- Assay type: cell-based
- CONDITION_NOTES: negative logarithm of molar concentration giving dose ratio of 2, read-out: Calcium (pA2) (converted)

COMPOUND	STUDY_TARGET	Kb [nM]
CCOC(=O)C1=C(C)NC(C)=C(C(=O)OCCCNCC(O)COc2ccccc2C)C1c1cccc([N+](=O)[O-])c1 (stereo not drawn)	rat dorsal aorta (Rattus norvegicus, UniProt P22002)	20
CCC1=C(C(=O)OCC(C)(C)NCC(O)COc2ccc(CC(N)=O)cc2)C(c2cccc([N+](=O)[O-])c2)C(C(=O)OC)=C(C)N1 (stereo not drawn) [Example 45, Hemihydrate]	rat dorsal aorta (Rattus norvegicus, UniProt P22002)	6.31
CCC1=C(C(=O)OCC(C)(C)NCC(O)COc2ccc(CCOC)cc2)C(c2cccc([N+](=O)[O-])c2)C(C(=O)OC)=C(C)N1 (stereo not drawn)	rat dorsal aorta (Rattus norvegicus, UniProt P22002)	1.58

----------
- STUDY_TARGET: rat dorsal aorta (Rattus norvegicus, UniProt P22002)
- Construct: from tissue; host or cells: rat dorsal aorta (smooth muscle)
- EXPERIMENT: Calcium blockade in rat dorsal aorta (calcium activity in smooth muscle)
- Type: cell-based
- CONDITION_NOTES: negative logarithm of molar concentration giving dose ratio of 2
- Procedure: Evaluation of these pharmacological properties was affected by means of both in vitro and in vivo biological screens. In vitro screening included calcium activity in various smooth muscle systems such as rat dorsal aorta, portal vein, and trachea; effects on blood platelets, β-binding affinities which were determined in rat heart and lung. […]
READOUT_NAME: Calcium (pA2)

MOLECULE	READOUT_NAME	TEST_VALUE
COC(=O)C1=C(C)NC(C)=C(C(=O)OCCCNCC(O)COc2ccccc2C(F)(F)F)C1c1cccc([N+](=O)[O-])c1 (stereo not drawn) [Example 60]	Calcium (pA2)	7.2
COC(=O)C1=C(C)NC(C)=C(C(=O)OCCCNCC(O)COc2ccccc2C2CCCCC2)C1c1cccc([N+](=O)[O-])c1 (stereo not drawn) [Example 61]	Calcium (pA2)	7.6
COC(=O)C1=C(C)NC(C)=C(C(=O)OCCCNCC(O)COc2cccc3c2CCCC3=O)C1c1cccc([N+](=O)[O-])c1 (stereo not drawn) [Example 63]	Calcium (pA2)	8.8
COC(=O)C1=C(C)NC(C)=C(C(=O)OCCCNCC(O)COc2cccc3c2C[C@H](O)[C@H](O)C3)C1c1cccc([N+](=O)[O-])c1 (relative stereo) [Example 64]	Calcium (pA2)	7.3
C=CCc1ccccc1OCC(O)CNCCCOC(=O)C1=C(C)NC(C)=C(C(=O)OC)C1c1cccc([N+](=O)[O-])c1 (stereo not drawn) [Example 62]	Calcium (pA2)	7.4
COC(=O)C1=C(C)NC(C)=C(C(=O)OCCCNCC(O)COc2cccc3ccccc23)C1c1cccc([N+](=O)[O-])c1 (stereo not drawn) [Example 59]	Calcium (pA2)	7.3
